conditions: 338.15 K; 101.33 kPa; Liquid
± gives the expanded uncertainty stated by the source.

| compound | mass density |
| --- | --- |
| CCCCCCCCOS(=O)(=O)[O-].CCn1cc[n+](C)c1 [1-ethyl-3-methylimidazolium octyl sulfate] | 1068.14 ± 1 kg/m3 |
| CCn1cc[n+](C)c1.CO[PH](=O)[O-] [1-ethyl-3-methylimidazolium methyl phosphonate] | 1165.66 ± 2 kg/m3 |
| CCCCn1cc[n+](CCCC)c1.O=S(=O)([N-]S(=O)(=O)C(F)(F)F)C(F)(F)F | 1304.36 ± 1.8 kg/m3 |
| CCn1cc[n+](C)c1.CS(=O)(=O)[O-] [1-ethyl-3-methylimidazolium methanesulfonate] | 1214.69 ± 1.4 kg/m3 |
